System: HT29 colon
assay-remarks: NCI-60 one-dose screen, 48 h (100 = growth as untreated, 0 = no growth, -100 = all killed)
protocol-conditions: 10 µM unless noted
About 83,000 compounds went through this panel and 20% of them were active in at least one assay; those are over-represented in the sample as a whole. Activity calls are given as the source filed them. Rule for the calls: active = growth percent below 10; inactive = the rest.
Reported values of growth for individual entries

{"chemical-structure": "O=C1Nc2ccccc2/C1=C\\c1ccccc1O", "growth": "116% (inactive)"}

[in] What value of measured growth is listed for "O=C1CSc2ccccc2N1" ?
[out] 100% (inactive)

[in] What value of measured growth is listed for "CN(C)Cc1ccccn1" ?
[out] 97.4% (inactive)

[in] What value of measured growth is listed for "CC(CO)(CO)C(=O)O" ?
[out] 102% (inactive)

[in] What value of measured growth is listed for "C=C1C(=O)C2CCN1CC2" ?
[out] 89.8% (inactive)

[in] What value of measured growth is listed for "Cc1ccc(O)c(N)c1" ?
[out] 112% (inactive)

[in] What value of measured growth is listed for "Cc1ccc(NCN2C(=O)c3ccccc3C2=O)c(C)n1" ?
[out] 104% (inactive)

[in] What value of measured growth is listed for "Cc1ccc2[nH]c3ccccc3c2c1" ?
[out] 102% (inactive)

[in] What value of measured growth is listed for "Cn1c(=O)c2[nH]c(CC(=O)O)nc2n(C)c1=O" ?
[out] 101% (inactive)

====

Tested on: MDA-MB-435 melanoma
assay-remarks: NCI-60 one-dose screen, 48 h (100 = growth as untreated, 0 = no growth, -100 = all killed)
protocol-conditions: 10 µM unless noted
Experimental: Growth inhibition of the MDA-MB-435 human Melanoma tumor cell line is measured as a screen for anti-cancer activity. Cells are grown in 96 well plates and exposed to the test compound for 48 hours. Compounds are tested at a single concentration, which is 10^-5 M for most compounds. The reported endpoint is percent growth (GI% or GIPRCNT), where numbers from 0 - 100% represent growth inhibition, and numbers from -100% - 0 represent cell death. […]
The panel holds about 83,000 compounds, 20% with a hit somewhere; the sample as a whole holds those more often.
result-type: growth (%)
Supply the numeric figure in %, leaving out any unit text.

{"molecule": "CSc1nc2[nH]ncc2c(=O)[nH]1", "growth / %": 103}
{"molecule": "CN(C(=S)S(=O)(=O)C12CC3CC(CC(C3)C1)C2)c1ccccc1", "growth / %": 98.8}
{"molecule": "C=CCNC(=S)N/C=C(/C(=O)c1ccccc1)c1ccccc1", "growth / %": 98.6}
{"molecule": "CN=S(=O)(OCCCCCOS(=O)(=NC)c1ccc(C)cc1)c1ccc(C)cc1 (stereo not drawn)", "growth / %": 91.9}
{"molecule": "COc1ccc(C2CCCCC2=O)cc1 (stereo not drawn)", "growth / %": 103}
{"molecule": "O=C(NC1CCCCC1)c1ccc(Cl)cc1", "growth / %": 105}

[in] What value of measured growth is listed for "Cc1ccc(S(=O)(=O)CCCl)cc1" ?
[out] 117

[in] What value of measured growth is listed for "C1Cc2onc(-c3noc4c3CCC4)c2C1" ?
[out] 113

====

Tested on: UACC-62 melanoma
assay-remarks: NCI-60 one-dose screen, 48 h (100 = growth as untreated, 0 = no growth, -100 = all killed)
protocol-conditions: 10 µM unless noted
Compounds without any hit were thinned out: in the full panel of roughly 83,000, 20% have a hit.
result-type: growth (%)
Supply the numeric figure in %, leaving out any unit text.

As a guide, the following entries are already answered.
{"compound": "Cc1cc(=O)n(Nc2ccccc2)c(O)c1C#N", "growth, %": 103}
{"compound": "CC(=O)c1cccc(O)c1", "growth, %": 109}
{"compound": "CC(=O)c1cccs1", "growth, %": 94.2}
{"compound": "O=c1cc(Cl)nc2ccccn12", "growth, %": 117}
{"compound": "CN(C)Cc1ccccn1", "growth, %": 97.8}
{"compound": "NC(=O)NCCO", "growth, %": 95.5}
{"compound": "CSc1nc2[nH]ncc2c(=O)[nH]1", "growth, %": 107}
{"compound": "COC1OC(C(O)C(O)CO)C(O)C(O)C1O (centres undefined)", "growth, %": 102}

Now consider a different compound.
[in] What value of measured growth is listed for OCC1CCC(O)C(CO)N1 (centres undefined) ?
[out] 105

====

Test system: LOX IMVI melanoma
assay-remarks: NCI-60 one-dose screen, 48 h (100 = growth as untreated, 0 = no growth, -100 = all killed)
protocol-conditions: 10 µM
The panel holds about 83,000 compounds, 20% with a hit somewhere; the sample as a whole holds those more often.
result-type: growth (%)
Supply the numeric figure in %, leaving out any unit text.

As a guide, the following entries are already answered.
{"molecule": "NNc1ncnc2c1ncn2C1OC(CO)C(O)C1O (configuration not stated)", "growth / %": 32.6}
{"molecule": "CC(=O)c1cccc(O)c1", "growth / %": 94.6}
{"molecule": "Clc1ccc(-c2noc(/C=C\\c3ccccc3)n2)cc1", "growth / %": 97.5}

[in] Which growth is reported with LOX IMVI melanoma for this entry: "Cc1ccc2[nH]c3ccccc3c2c1" ?
[out] 97

[in] Which growth is reported with LOX IMVI melanoma for this entry: "CCNc1ccc2ccccc2c1N=Nc1ccc(N=Nc2ccccc2)cc1" ?
[out] 93.1

[in] Which growth is reported with LOX IMVI melanoma for this entry: "Cc1ccc(N2C(=O)c3cccc4c(N)c(S(=O)(=O)O)cc(c34)C2=O)cc1" ?
[out] 95

[in] Which growth is reported with LOX IMVI melanoma for this entry: "C1=NCCc2ccccc21" ?
[out] 100

====

Test system: UACC-257 melanoma
assay-remarks: NCI-60 one-dose screen, 48 h
protocol-conditions: 10 µM unless noted
The panel holds about 83,000 compounds, 20% with a hit somewhere; the sample as a whole holds those more often. The source made the active and inactive calls. Rule for the calls: active = growth percent below 10; inactive = the rest.
Mark one answer only. Choices: active, inactive

[in] Dear all, I need the recorded test outcome for "S=C(Sc1ccc(Cl)cc1)Sc1ccc(Cl)cc1" , thank you.
[out] inactive

====

Reported values of growth for individual entries
System: SK-MEL-28 melanoma
assay-remarks: NCI-60 one-dose screen, 48 h (100 = growth as untreated, 0 = no growth, -100 = all killed)
protocol-conditions: 10 µM unless noted
The panel holds about 83,000 compounds, 20% with a hit somewhere; the sample as a whole holds those more often.
Supply the numeric figure in %, leaving out any unit text.

{"compound": "Cc1ccc([N+](=O)[O-])c(C)n1", "output-unit": "%", "growth": 99.6}
{"compound": "CC(c1ccccc1)N1C(=O)CSC1=S (centres undefined)", "output-unit": "%", "growth": 46.9}
{"compound": "O=C(O)CCCCCNC(=O)OCc1ccccc1", "output-unit": "%", "growth": 106}
{"compound": "Cc1c(Cl)cccc1N=C=S", "output-unit": "%", "growth": 132}
{"compound": "CC(=O)Nc1ccc(O)c(C)c1", "output-unit": "%", "growth": 103}

Now consider a different compound.
[in] What value of measured growth is listed for "CC(=O)C[n+]1ccc(C)cc1Sc1ccccc1C" ?
[out] 104

====

Test system: MDA-MB-231 breast
assay-remarks: NCI-60 one-dose screen, 48 h
protocol-conditions: 10 µM unless noted
Compounds without any hit were thinned out: in the full panel of roughly 83,000, 20% have a hit. The source made the active and inactive calls. How the source made its calls: active means growth percent below 10; inactive means the rest.
Mark one answer only. Choices: YES = active, NO = inactive

Solved cases (5 shown):
{"chemical-structure": "O=C(O)CCCCCNC(=O)OCc1ccccc1", "experimental-system": "MDA-MB-231 breast", "class-assignment": "NO"}
{"chemical-structure": "C1CCc2onc(-c3noc4c3CCCCC4)c2CC1", "experimental-system": "MDA-MB-231 breast", "class-assignment": "NO"}
{"chemical-structure": "CC1(C)OC(=O)CC1=O", "experimental-system": "MDA-MB-231 breast", "class-assignment": "NO"}
{"chemical-structure": "CN(C)c1ncnc2c1cnn2C", "experimental-system": "MDA-MB-231 breast", "class-assignment": "NO"}
{"chemical-structure": "Clc1ccc(C(SCc2ccccc2)SCc2ccccc2)cc1", "experimental-system": "MDA-MB-231 breast", "class-assignment": "NO"}

[in] Dear all, I need the recorded test outcome for "Nc1cc2ccccc2c(O)c1O" , thank you.
[out] YES

[in] Dear all, I need the recorded test outcome for "Cc1[nH]c(=S)[nH]c(=O)c1C" , thank you.
[out] NO

[in] Dear all, I need the recorded test outcome for "CCOP(=O)(OCC)/C(=C\N1C(=O)CC(=O)NC1=S)C(=O)OC" , thank you.
[out] NO

[in] Dear all, I need the recorded test outcome for "CC1(C)CCC(C)(C)NC(=S)N1" , thank you.
[out] NO

[in] Dear all, I need the recorded test outcome for "COc1ccc(/C=N/NC(=O)COCC(=O)N/N=C/c2ccc(OC)cc2)cc1" , thank you.
[out] NO

[in] Dear all, I need the recorded test outcome for "Cc1cc(Cc2ccccc2)c(O)c(Cc2ccccc2)c1" , thank you.
[out] NO

[in] Dear all, I need the recorded test outcome for "O=C(c1ccccc1O)N1CCCC1" , thank you.
[out] NO
